test: Highest frequency of moderate liver toxicity observed during clinical trials, expressed as a percentage. [column '% BIOL' in source]; settings: human
readout: Hepatotoxicity (moderate) (%)

>>> measurednumber("CC1(C)S[C@@H]2[C@H](NC(=O)[C@H](N)c3ccccc3)C(=O)N2[C@H]1C(=O)OCOC(=O)[C@@H]1N2C(=O)C[C@H]2S(=O)(=O)C1(C)C [SULTAMICILLIN]")
43
>>> measurednumber("CC[C@H]1OC(=O)[C@H](C)[C@@H](O[C@H]2C[C@@](C)(OC)[C@@H](O)[C@H](C)O2)[C@H](C)[C@@H](O[C@@H]2O[C@H](C)C[C@H](N(C)C)[C@H]2O)[C@](C)(O)C[C@@H](C)C(=O)[C@H](C)[C@@H](O)[C@]1(C)O [ERYTHROMYCIN]")
38
>>> measurednumber("O=C1c2ccccc2C(=O)C1c1ccccc1 [PHENINDIONE]")
0
>>> measurednumber("CO[C@@H]1[C@H](OC(=O)/C=C/C=C/C=C/C=C/C(=O)O)CC[C@]2(CO2)[C@H]1[C@@]1(C)O[C@@H]1CC=C(C)C [FUMAGILLIN]")
16.7
>>> measurednumber("Cc1ccc2c(c1)C(N1CCN(C)CC1)=Nc1ccccc1S2 [METIAPINE]")
0
>>> measurednumber("CCc1cc2c(s1)N(C)C(=O)CN=C2c1ccccc1Cl [CLOTIAZEPAM]")
0
